Values were extracted from paper PMC4840437.

# experimental.system: MvicOBP3 (Megoura viciae, UniProt A0A0S2E5N6)
# Sequence (A0A0S2E5N6 2-122): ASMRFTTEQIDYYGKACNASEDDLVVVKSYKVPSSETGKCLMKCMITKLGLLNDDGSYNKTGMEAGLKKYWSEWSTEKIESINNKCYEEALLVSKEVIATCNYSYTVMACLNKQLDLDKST
# assay: Direct fluorescence titration of the probe NPN
# run.parameters: recombinant MvicOBP3, 2 μM protein, 20 mM Tris-HCl pH 7.4, 22 °C; read-out: Kd of fluorescent probe NPN
endpoint.label: Kd (nM)

[[record]]
molecule = "c1ccc(Nc2cccc3ccccc23)cc1"
unit_of_measure = "nM"
observed = 1900


----------
# experimental.system: UniProt:A0A0M4AUH6
# Sequence (A0A0M4AUH6 1-119): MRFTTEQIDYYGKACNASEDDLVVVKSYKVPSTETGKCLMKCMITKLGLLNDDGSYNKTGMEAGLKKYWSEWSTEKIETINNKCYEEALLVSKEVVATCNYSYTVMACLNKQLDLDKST
# assay: Competitive fluorescence binding assay (NPN displacement)
endpoint.label: Ki

[[record]]
compound = "C=C1CCC2CC1C2(C)C (stereo not shown)"
experimental_system = "UniProt:A0A0M4AUH6"
endpoint_label = "Ki"
observed = "30.7 µM"

